TARGET OF ASSAY: HIV-1 IAVI-C22 Env (clade C pseudovirus) (HIV-1)
PROTOCOL DESCRIPTION: cell-based or functional assay
So I've got a bunch of binders here, and I need their IC50 (µg/mL), pseudovirus neutralization values.

# IC50 (µg/mL), pseudovirus neutralization lookup, item 1495_C14 (PGC14) (antibody, human IgG1, lambda, V domains shown) VH: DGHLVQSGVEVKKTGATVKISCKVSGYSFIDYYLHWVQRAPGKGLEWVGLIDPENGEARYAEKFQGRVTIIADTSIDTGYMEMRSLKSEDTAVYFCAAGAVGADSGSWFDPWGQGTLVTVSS VL: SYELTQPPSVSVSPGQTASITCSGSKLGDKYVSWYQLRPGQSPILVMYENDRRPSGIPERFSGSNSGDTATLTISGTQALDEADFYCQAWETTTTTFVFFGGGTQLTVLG
> 50 µg/mL

# IC50 (µg/mL), pseudovirus neutralization lookup, item 1460_G14 (PGG14) (antibody, human IgG1, kappa, V domains shown) VH: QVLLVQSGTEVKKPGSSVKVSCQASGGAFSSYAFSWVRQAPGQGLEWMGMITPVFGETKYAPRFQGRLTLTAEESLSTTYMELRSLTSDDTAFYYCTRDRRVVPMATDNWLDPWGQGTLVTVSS VL: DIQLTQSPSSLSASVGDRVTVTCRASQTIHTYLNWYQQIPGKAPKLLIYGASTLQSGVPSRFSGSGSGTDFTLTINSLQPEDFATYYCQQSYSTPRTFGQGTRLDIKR
> 50 µg/mL

# IC50 (µg/mL), pseudovirus neutralization lookup, item 1443_C16 (PG16) (TCN-116) (antibody, V domains shown) VH: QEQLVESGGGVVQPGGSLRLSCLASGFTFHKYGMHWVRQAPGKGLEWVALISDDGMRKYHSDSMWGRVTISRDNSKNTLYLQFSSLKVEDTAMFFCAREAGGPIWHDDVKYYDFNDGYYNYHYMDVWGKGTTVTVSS VL: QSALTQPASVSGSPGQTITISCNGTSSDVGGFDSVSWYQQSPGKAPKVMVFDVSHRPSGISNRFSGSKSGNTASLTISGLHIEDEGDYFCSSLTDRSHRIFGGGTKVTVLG
0.069 µg/mL

# IC50 (µg/mL), pseudovirus neutralization lookup, item 1456_P20 (PG20) (antibody, human IgG1, kappa, V domains shown) VH: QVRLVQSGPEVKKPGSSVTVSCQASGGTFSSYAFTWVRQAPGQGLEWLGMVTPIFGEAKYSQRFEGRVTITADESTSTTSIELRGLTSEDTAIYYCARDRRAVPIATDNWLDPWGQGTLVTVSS VL: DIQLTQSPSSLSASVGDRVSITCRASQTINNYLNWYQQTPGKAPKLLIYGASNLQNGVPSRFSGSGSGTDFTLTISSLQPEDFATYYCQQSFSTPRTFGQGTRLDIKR
> 50 µg/mL
